Data provenance: paper PMC3761975

# TARGET_OF_ASSAY: CYP3A4 (Homo sapiens)
# Sequence (P08684 whole entry): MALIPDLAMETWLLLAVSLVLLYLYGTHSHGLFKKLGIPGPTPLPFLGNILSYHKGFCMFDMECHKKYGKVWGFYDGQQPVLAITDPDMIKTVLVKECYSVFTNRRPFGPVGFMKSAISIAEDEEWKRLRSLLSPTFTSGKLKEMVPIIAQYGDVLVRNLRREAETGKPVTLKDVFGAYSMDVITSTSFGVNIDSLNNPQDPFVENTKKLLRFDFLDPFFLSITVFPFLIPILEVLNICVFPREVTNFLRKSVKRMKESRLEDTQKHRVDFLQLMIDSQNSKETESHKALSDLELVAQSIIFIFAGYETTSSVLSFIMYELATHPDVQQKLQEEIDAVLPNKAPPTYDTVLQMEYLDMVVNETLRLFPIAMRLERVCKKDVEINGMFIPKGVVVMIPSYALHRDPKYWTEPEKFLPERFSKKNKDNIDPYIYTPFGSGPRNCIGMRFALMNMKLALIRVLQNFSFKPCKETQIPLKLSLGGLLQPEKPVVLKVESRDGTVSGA
# SETTINGS: recombinant enzyme
METRIC_NAME: pIC50
Hey, just a heads up that pIC50 is the negative log base 10 of the concentration in molar.

Ask: For the molecule CC(=O)O[C@@H]1C[C@@]23C[C@@]24CC[C@H](O[C@@H]2OC[C@@H](O)[C@H](O)[C@H]2O)C(C)(C)[C@@H]4CC[C@H]3[C@]2(C)C[C@@H]3O[C@@]4(C[C@@H](C)[C@@H]3[C@@]12C)OC[C@@]1(C)O[C@@H]41 [Deoyxactein, 23-epi-26-deoxyactein] , what pIC50 is on record?
Result: 4.54

###

This listing pairs molecules with measured IC50.
# TARGET_OF_ASSAY: CYP2D6 (Homo sapiens, UniProt P10635)
# Sequence (P10635 whole entry): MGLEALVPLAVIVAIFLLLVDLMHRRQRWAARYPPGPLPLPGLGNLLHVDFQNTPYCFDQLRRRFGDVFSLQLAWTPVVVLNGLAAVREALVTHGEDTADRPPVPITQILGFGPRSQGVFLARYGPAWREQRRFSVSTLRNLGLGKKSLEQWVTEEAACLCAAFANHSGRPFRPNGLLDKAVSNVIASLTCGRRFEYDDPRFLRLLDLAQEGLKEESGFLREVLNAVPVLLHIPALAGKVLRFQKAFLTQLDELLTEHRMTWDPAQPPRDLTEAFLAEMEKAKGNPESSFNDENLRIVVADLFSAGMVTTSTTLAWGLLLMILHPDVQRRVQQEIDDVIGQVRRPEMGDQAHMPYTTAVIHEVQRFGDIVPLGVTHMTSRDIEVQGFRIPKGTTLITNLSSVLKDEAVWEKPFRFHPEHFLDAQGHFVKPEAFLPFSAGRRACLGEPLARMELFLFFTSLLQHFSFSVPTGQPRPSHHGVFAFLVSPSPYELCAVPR
# ASSAY_COMMENT: CYP2D6 fluorometric microtiter plate inhibition assay

record_smiles=COc1cc(/C=C/C(=O)O[C@H](C(=O)O)[C@](O)(Cc2ccc(O)c(O)c2)C(=O)O)ccc1O target_of_assay="CYP2D6 (Homo sapiens, UniProt P10635)" test_result="9 µM"
record_smiles=CC(=O)O[C@@H]1C[C@@]23C[C@@]24CC[C@H](O[C@@H]2OC[C@@H](O)[C@H](O)[C@H]2O)C(C)(C)[C@@H]4CC[C@H]3[C@]2(C)C[C@@H]3O[C@]4(C[C@@H](C)[C@@H]3[C@@]12C)O[C@H](O)[C@@]1(C)O[C@@H]41 target_of_assay="CYP2D6 (Homo sapiens, UniProt P10635)" test_result="51.1 µM"
record_smiles=COc1ccc(/C=C/C(=O)O[C@H](C(=O)O)[C@](O)(Cc2ccc(O)c(O)c2)C(=O)O)cc1O target_of_assay="CYP2D6 (Homo sapiens, UniProt P10635)" test_result="12.6 µM"

In the following, a different molecule is considered.
Ask: Name the recorded IC50 for "O=C(/C=C/c1ccc(O)c(O)c1)O[C@H](C(=O)O)[C@](O)(Cc1ccc(O)c(O)c1)C(=O)O" .
Result: 5.4 µM

###

# TARGET_OF_ASSAY: CYP2D6 (Homo sapiens)
# SETTINGS: recombinant enzyme
METRIC_NAME: pIC50
In textbook form, pIC50 equals minus log to base ten of the concentration in mol/L.

Ask: Please provide the recorded pIC50 for CC(=O)O[C@@H]1C[C@@]23C[C@@]24CC[C@H](O[C@@H]2OC[C@@H](O)[C@H](O)[C@H]2O)C(C)(C)[C@@H]4CC[C@H]3[C@]2(C)C[C@@H]3O[C@@]4(C[C@@H](C)[C@@H]3[C@@]12C)OC[C@@]1(C)O[C@@H]41 [Deoyxactein, 23-epi-26-deoxyactein] , tested on CYP2D6 (Homo sapiens).
Result: 4.00

###

# TARGET_OF_ASSAY: CYP2C9 (Homo sapiens, UniProt P11712)
# Sequence (P11712 whole entry): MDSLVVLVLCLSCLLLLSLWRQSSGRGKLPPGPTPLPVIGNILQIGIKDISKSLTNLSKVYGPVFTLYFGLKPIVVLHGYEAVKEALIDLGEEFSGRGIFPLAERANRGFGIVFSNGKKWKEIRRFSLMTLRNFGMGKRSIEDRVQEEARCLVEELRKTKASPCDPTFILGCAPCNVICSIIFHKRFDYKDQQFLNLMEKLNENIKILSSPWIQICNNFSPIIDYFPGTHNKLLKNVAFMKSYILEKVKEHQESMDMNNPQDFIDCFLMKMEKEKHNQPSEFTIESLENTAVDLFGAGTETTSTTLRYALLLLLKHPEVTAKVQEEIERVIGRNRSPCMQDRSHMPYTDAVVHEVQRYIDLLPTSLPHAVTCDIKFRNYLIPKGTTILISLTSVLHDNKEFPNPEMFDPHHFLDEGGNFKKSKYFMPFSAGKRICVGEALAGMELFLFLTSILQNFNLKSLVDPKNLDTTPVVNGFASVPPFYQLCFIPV
# ASSAY_COMMENT: CYP2C9 fluorometric microtiter plate inhibition assay
METRIC_NAME: pIC50
pIC50 is a log-scale quantity: -log10 of the concentration expressed in molar.

Here is how some molecules turned out for pIC50.
record_smiles=O=C(/C=C/c1ccc(O)c(O)c1)O[C@H](C(=O)O)[C@](O)(Cc1ccc(O)c(O)c1)C(=O)O test_result=5.15
record_smiles=COc1cc(/C=C/C(=O)O[C@H](C(=O)O)[C@](O)(Cc2ccc(O)c(O)c2)C(=O)O)ccc1O test_result=5.08
record_smiles=COc1ccc(/C=C/C(=O)O[C@H](C(=O)O)[C@](O)(Cc2ccc(O)c(O)c2)C(=O)O)cc1O test_result=4.90

Now consider the entry below.
Ask: # input molecule: "CC(=O)O[C@@H]1C[C@@]23C[C@@]24CC[C@H](O[C@@H]2OC[C@@H](O)[C@H](O)[C@H]2O)C(C)(C)[C@@H]4CC[C@H]3[C@]2(C)C[C@@H]3O[C@]4(C[C@@H](C)[C@@H]3[C@@]12C)O[C@H](O)[C@@]1(C)O[C@@H]41" ; wanted: its pIC50
Result: 4.60
